Molecular target: endogenous mGlu5 in cortical neurons (Rattus norvegicus)
Assay: Fluorescence-based Ca2+ flux assay with a microplate reader
test-readout: IC50 (nM)

[
  {
    "compound": "COC(=O)N1CC[C@@H]2[C@H]1CCC[C@@]2(O)C#Cc1cccc(C)c1 [AFQ056]",
    "measurement-target": "endogenous mGlu5 in cortical neurons (Rattus norvegicus)",
    "unit-annotation": "nM",
    "experimental-value": 270
  }
]

P: Cc1nc(C#Cc2ccnc(Cl)c2)c(C)n1-c1ccc(F)cc1 [RG7090]
Q: C[C@@H](Oc1nnc(-c2ccncc2)n1C)c1cc(-c2cccc(Cl)c2)on1 [AZD2066]
R: CN1CC(=O)N=C1NC(=O)Nc1cccc(Cl)c1 [Fenobam]
[in] Please list these compounds in decreasing order of IC50. List the labels, following the order given in the request.
[out] R, Q, P
(R: 807 nM, Q: 380 nM, P: 80.2 nM)

---

Biological target: endogenous mGlu5 in striatal neurons (Rattus norvegicus, UniProt P31424)
Sequence (P31424 21-1203): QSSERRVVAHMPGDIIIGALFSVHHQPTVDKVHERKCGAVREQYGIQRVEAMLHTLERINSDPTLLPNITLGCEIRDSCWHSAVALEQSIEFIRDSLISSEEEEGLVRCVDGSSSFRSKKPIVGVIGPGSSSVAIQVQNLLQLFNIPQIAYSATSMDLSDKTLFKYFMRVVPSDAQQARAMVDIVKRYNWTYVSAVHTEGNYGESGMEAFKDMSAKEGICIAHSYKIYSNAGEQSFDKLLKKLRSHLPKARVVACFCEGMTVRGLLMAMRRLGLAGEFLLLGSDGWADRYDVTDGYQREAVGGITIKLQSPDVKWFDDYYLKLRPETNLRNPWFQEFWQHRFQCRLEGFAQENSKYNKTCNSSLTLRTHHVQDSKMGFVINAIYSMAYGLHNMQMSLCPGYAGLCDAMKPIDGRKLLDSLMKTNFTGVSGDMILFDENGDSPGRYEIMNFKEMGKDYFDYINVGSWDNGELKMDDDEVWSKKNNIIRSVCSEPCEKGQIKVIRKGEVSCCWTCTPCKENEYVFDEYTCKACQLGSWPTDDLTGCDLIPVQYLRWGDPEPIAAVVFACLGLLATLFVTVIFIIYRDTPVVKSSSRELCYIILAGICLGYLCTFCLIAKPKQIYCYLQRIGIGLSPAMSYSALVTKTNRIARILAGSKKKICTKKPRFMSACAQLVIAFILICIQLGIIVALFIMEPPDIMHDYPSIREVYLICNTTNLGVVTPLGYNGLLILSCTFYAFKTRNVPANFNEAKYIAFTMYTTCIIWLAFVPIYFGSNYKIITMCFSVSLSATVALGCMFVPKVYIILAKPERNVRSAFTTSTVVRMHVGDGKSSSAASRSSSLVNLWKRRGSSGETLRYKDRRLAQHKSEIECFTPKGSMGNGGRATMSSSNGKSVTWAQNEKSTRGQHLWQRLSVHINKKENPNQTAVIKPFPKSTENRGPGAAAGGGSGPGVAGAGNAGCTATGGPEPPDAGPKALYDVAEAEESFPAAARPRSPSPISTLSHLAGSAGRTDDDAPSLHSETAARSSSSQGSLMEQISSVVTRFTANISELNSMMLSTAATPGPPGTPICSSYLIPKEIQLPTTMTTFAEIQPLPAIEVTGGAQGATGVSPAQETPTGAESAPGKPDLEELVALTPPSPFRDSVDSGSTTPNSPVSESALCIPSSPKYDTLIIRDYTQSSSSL
Test: Single cell Ca2+ imaging
Format: cell-based
Settings: striatal neurons; Quis 10 μM; compound at 1, 5, 10 μM
test-readout: effect on Quis-mediated Ca2+ responses (intracellular mGlu5)

[
  {
    "compound": "CN1CC(=O)N=C1NC(=O)Nc1cccc(Cl)c1 [Fenobam]",
    "experimental-value": "less effective"
  },
  {
    "compound": "C[C@@H](Oc1nnc(-c2ccncc2)n1C)c1cc(-c2cccc(Cl)c2)on1 [AZD2066]",
    "experimental-value": "less effective"
  }
]

---

Biological target: endogenous mGlu5 in striatal neurons (Rattus norvegicus, UniProt P31424)
Experiment: Fluorescence-based Ca2+ flux assay with a microplate reader
test-readout: pEC50
To interpret pEC50, take it as minus log10 of a concentration measured in moles per litre.

[in] Sample N[C@@H](Cn1oc(=O)[nH]c1=O)C(=O)O [Quis, Quisqualate] — what was its pEC50?
[out] 5.88

---

Target: endogenous mGlu5 in striatal neurons (Rattus norvegicus, UniProt P31424)
Experiment: Fluorescence-based Ca2+ flux assay with a microplate reader
pIC50: −log10 of the molar value.
test-readout: pIC50

Below, 2 compounds whose answers are already recorded.
[
  {
    "compound": "C[C@@H](Oc1nnc(-c2ccncc2)n1C)c1cc(-c2cccc(Cl)c2)on1 [AZD2066]",
    "experimental-value": 5.45
  },
  {
    "compound": "CN1CC(=O)N=C1NC(=O)Nc1cccc(Cl)c1 [Fenobam]",
    "experimental-value": 5.53
  }
]

I: Cc1nc(C#Cc2ccnc(Cl)c2)c(C)n1-c1ccc(F)cc1 [RG7090]
II: COC(=O)N1CC[C@@H]2[C@H]1CCC[C@@]2(O)C#Cc1cccc(C)c1 [AFQ056]
[in] Consider entries I and II . Which has the numerically lower pIC50? Provide the label of your selected option as the answer.
[out] II
